Target: WT CBL-B (36-427) (Homo sapiens, UniProt Q13191)
Construct: N-terminal biotinylated WT CBL-B (36-427) and C-CBL (46-435) were captured on a streptavidin (SA) coated sensor chip
Sequence (Q13191 36-427): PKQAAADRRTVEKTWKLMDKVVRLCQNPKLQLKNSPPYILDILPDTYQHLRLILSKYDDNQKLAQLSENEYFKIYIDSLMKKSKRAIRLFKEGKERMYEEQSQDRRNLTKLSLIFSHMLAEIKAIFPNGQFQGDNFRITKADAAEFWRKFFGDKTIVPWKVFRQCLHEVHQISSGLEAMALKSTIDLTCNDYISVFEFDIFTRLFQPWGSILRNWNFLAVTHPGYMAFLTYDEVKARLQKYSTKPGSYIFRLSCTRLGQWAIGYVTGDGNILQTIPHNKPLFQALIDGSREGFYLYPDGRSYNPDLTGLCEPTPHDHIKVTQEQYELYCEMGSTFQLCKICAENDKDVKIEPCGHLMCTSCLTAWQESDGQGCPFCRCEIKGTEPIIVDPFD
Experiment: Surface Plasmon Resonance (SPR) assay, binding affinity and kinetics, CBL-B
Conditions: SPR at 10° C., biotinylated WT CBL-B (36-427) on streptavidin chip; geometric mean; read-out: CBL-B SPR Kd (nM) GMean
MEASURED PARAMETER: Kd (nM)
Response body: numeric value in nM, unit text excluded.

Task item: Would you kindly share the measured Kd for Cn1cnnc1[C@@H](c1cccc(-c2n[nH]c3c(CN4CC[C@H](F)C4)nc(C(F)(F)F)cc23)c1)C1CCC1 ?
Reply: 6.4

Task item: Another molecule to look at: Cn1cnnc1[C@@H](c1cccc(-c2n[nH]c3c(CN[C@@H]4CCC(F)(F)C4)nc(C(F)(F)F)cc23)c1)C1CCC1
Reply: 3.4

Task item: Another molecule to look at: CC(NC1CC(F)(F)C1)c1nc(C(F)(F)F)cc2c(-c3cccc(C4(Cc5nncn5C)COC4)c3)n[nH]c12 (single isomer, unassigned) [Example C94]
Reply: 2.5

Task item: Another molecule to look at: C[C@@H](N[C@@H]1CCOC1)c1nc(C(F)(F)F)cc2c(-c3cccc([C@H](c4nncn4C)C4CCC4)c3)n[nH]c12 (single isomer, unassigned)
Reply: 4

Task item: Another molecule to look at: CC(c1nc(C(F)(F)F)cc2c(-c3cccc(C4(Cc5nncn5C)COC4)c3)n[nH]c12)N1CCCCC1 (single isomer, unassigned) [Example C22]
Reply: 8.2

// provenance: patent US20260125375A1
